All figures here come from BigSolDB 2.1.

Recorded solubility (mole fraction) for the following compounds
- conditions.used: in n-octanol, 318.15 K
measure.name: solubility (mole fraction)

>>> assay_result("COc1ccc(C2CC(=O)c3c(O)cc(O)cc3O2)cc1O (stereo not given)")
0.0042
>>> assay_result("O=c1c(O)c(-c2ccc(O)cc2)oc2cc(O)cc(O)c12")
0.0118
>>> assay_result("O=c1c(O)c(-c2ccc(O)cc2O)oc2cc(O)cc(O)c12")
0.00288
>>> assay_result("COc1ccc(-c2coc3cc(O)ccc3c2=O)cc1")
0.00075
>>> assay_result("O=c1c(O)c(-c2ccc(O)c(O)c2)oc2cc(O)cc(O)c12")
0.00823
>>> assay_result("O=c1cc(-c2ccc(O)cc2)oc2cc(O)cc(O)c12")
0.00102
>>> assay_result("O=c1cc(-c2ccccc2)oc2cc(O)cc(O)c12")
0.00247
>>> assay_result("O=C1C[C@@H](c2ccc(O)cc2)Oc2cc(O)cc(O)c21")
0.0114
>>> assay_result("O=c1cc(-c2ccc(O)c(O)c2)oc2cc(O)cc(O)c12")
0.00027
>>> assay_result("O=C1c2c(O)cc(O)cc2OC(c2ccc(O)c(O)c2)C1O (stereo not given)")
0.0196
